assay: Biodistribution of radiometal-DOTA-BBN conjugates in CF1 normal mice; settings: 1 hour post-injection
We begin with a simple list: items and their reported Avg % ID, Heart.
A number alone suffices; assume % ID.

MOLECULE	UNIT NAME	Avg % ID, Heart
CSCC[C@H](NC(=O)[C@H](CC(C)C)NC(=O)[C@H](Cc1cnc[nH]1)NC(=O)CNC(=O)[C@@H](NC(=O)[C@H](C)NC(=O)[C@H](Cc1c[nH]c2ccccc12)NC(=O)[C@H](CCC(N)=O)NC(=O)CCCCCCCNC(=O)CN1CCN(CC(=O)O)CCN(CC(=O)O)CCN(CC(=O)O)CC1)C(C)C)C(N)=O [149Pm-DOTA-8-Aoc-BBN[7-14]NH2]	% ID	0.00
CSCC[C@H](NC(=O)[C@H](CC(C)C)NC(=O)[C@H](Cc1c[nH]cn1)NC(=O)CNC(=O)[C@@H](NC(=O)[C@H](C)NC(=O)[C@H](Cc1c[nH]c2ccccc12)NC(=O)[C@H](CCC(N)=O)NC(=O)CCCCNC(=O)CN1CCN(CC(=O)O)CCN(CC(=O)O)CCN(CC(=O)O)CC1)C(C)C)C(N)=O [149Pm-DOTA-5-Ava-BBN[7-14]NH2]	% ID	0.06
CSCC[C@H](NC(=O)[C@H](CC(C)C)NC(=O)[C@H](Cc1cnc[nH]1)NC(=O)CNC(=O)[C@@H](NC(=O)[C@H](C)NC(=O)[C@H](Cc1c[nH]c2ccccc12)NC(=O)[C@H](CCC(N)=O)NC(=O)CN1CCN(CC(=O)O)CCN(CC(=O)O)CCN(CC(=O)O)CC1)C(C)C)C(N)=O [149Pm-DOTA-0-BBN[7-14]NH2]	% ID	0.00

Attention now shifts to the item below.
Requested field: Avg % ID, Heart. Item: CSCC[C@H](NC(=O)[C@H](CC(C)C)NC(=O)[C@H](Cc1cnc[nH]1)NC(=O)CNC(=O)[C@@H](NC(=O)[C@H](C)NC(=O)[C@H](Cc1c[nH]c2ccccc12)NC(=O)[C@H](CCC(N)=O)NC(=O)CCCCCCCNC(=O)CN1CCN(CC(=O)O)CCN(CC(=O)O)CCN(CC(=O)O)CC1)C(C)C)C(N)=O [177Lu-DOTA-8-Aoc-BBN[7-14]NH2] [metal not drawn] 0.02
